List of TGI values.
- System: OVCAR-8 ovarian
- Test summary: NCI tumour cell line growth inhibition, 48 h

In [3]: df
Out[3]:
                                   compound  experimental_system  observed_measurement
0  C=CCNC(=S)Nc1sc2c(c1C(=O)OCC)CC(C)CC2 (stereo unspecified)      OVCAR-8 ovarian              > 100 µM
1  CC1=C(C(=O)NCc2ccccc2)C(c2ccc(C3C(C(=O)NCc4ccccc4)=C(C)NC(C)=C3C(=O)NCc3ccccc3)cc2)C(C(=O)NCc2ccccc2)=C(C)N1      OVCAR-8 ovarian               20.9 µM
2  COc1cc2c(cc1OCCCN1CCN(CCCOc3cc4c(cc3OC)C(=O)N3CCC[C@H]3C=N4)CC1)C=CC(C)(C)O2      OVCAR-8 ovarian               3.85 µM
3  CNC(=O)c1ccccc1-[s+]1c2ccccc2c(=O)n1C (stereo unspecified)      OVCAR-8 ovarian              > 100 µM

IN: # return TGI for `C=C(Cn1c(=O)c2ccccc2c2ccccc21)c1ccc(C(=O)Nc2ccccc2N)cc1` , test system: OVCAR-8 ovarian
OUT: > 100 µM

IN: # return TGI for `Cc1ccc(C(=O)O/N=C2/CCCC/C2=C\c2ccccc2)cc1` , test system: OVCAR-8 ovarian
OUT: > 100 µM

====

- System: SF-268 CNS
- Test summary: NCI tumour cell line growth inhibition, 48 h
Observation type: TGI

Here's what some known entries look like.
>>> print(df.to_string())
                                   molecule  observation_type  observed_measurement
0  O=S(=O)(Nc1ncccn1)c1ccc(N=Nc2ccc(O)c3ncccc23)cc1               TGI                 87 µM
1  CC/C(Cc1ccccc1)=C(\c1ccc(OCCN2CCCCCC2)cc1)c1ccc(OC(=O)NCc2ccccc2)cc1               TGI               11.3 µM
2  COC(=O)C(=O)C(C(=O)Nc1cccc(C)c1C)C1Sc2ccccc2NC1=O (stereo not given)               TGI               > 25 µM
3           Cc1cc(C)nc(NC(N)=NCCc2ccccc2)n1               TGI               41.9 µM
4                                 CCCC(=O)O               TGI            > 18700 µM

IN: Indicate the recorded TGI value for this molecule: CC1=NN(C(=O)CSc2nnc(SCC(=O)N3N=C(C)CC3(O)c3ccccc3)s2)C(O)(c2ccccc2)C1 (stereo not given)
OUT: 47.2 µM

IN: Indicate the recorded TGI value for this molecule: `CCc1nn(CN2CCN(C)CC2)c(=S)n1/N=C\c1ccc(-c2ccc([N+](=O)[O-])cc2)o1`
OUT: > 100 µM

====

- Tested on: DU-145 prostate
- Test summary: NCI tumour cell line growth inhibition, 48 h
List of TGI values.

IN: Indicate the recorded TGI value for this compound: `Cc1ccccc1NC(=S)Nc1ccccn1`
OUT: > 100 µM

IN: Indicate the recorded TGI value for this compound: `CCOC(=O)CCCn1nnc(C(=O)OCC)c1C(=O)OCC`
OUT: > 100 µM

IN: Indicate the recorded TGI value for this compound: `C1CC2=C(C1)[Se]C(=C1Sc3nsnc3S1)[Se]2`
OUT: > 100 µM

IN: Indicate the recorded TGI value for this compound: `CN(C)c1nc2sc3c(c2c(=O)o1)CCCC3`
OUT: > 100 µM

IN: Indicate the recorded TGI value for this compound: `CC[n+]1cnc(N)c2c(-c3ccc(Cl)cc3)cn(-c3ccc(C)cc3)c21`
OUT: 31.8 µM
